Data provenance: patent US5869675A

protocol.description: Cytotoxic action on Neuro 2A cells
Assay type: cell-based
condition.set: mouse, no attached cells observed in more than 2/3 of the whole cells, read-out: Cytotoxicity (B)
Classification field: 1 (yes) = MCC at or over 10 µM; 0 (no) = MCC under 10 µM.

I'd appreciate it if you could say whether CC(C)[C@H](O)[C@@]1(C(=O)SC[C@H](NC(=O)CC[C@H](N)C(=O)O)C(=O)NCC(=O)O)NC(=O)[C@H](C)[C@@H]1O [Example 26] has MCC at least equal to 10 µM.
1 (yes)

I'd appreciate it if you could say whether CC(C)[C@H](O)[C@@]1(C(=O)Sc2ccccn2)NC(=O)[C@H](C)[C@@H]1O [Example 22] has MCC at least equal to 10 µM.
1 (yes)

I'd appreciate it if you could say whether COC(=O)CCSC(=O)[C@]1([C@@H](O)C(C)C)NC(=O)[C@H](C)[C@@H]1O [Example 21] has MCC at least equal to 10 µM.
0 (no)

I'd appreciate it if you could say whether CC(C)[C@H](O)[C@@]1(C(=O)Sc2ccncc2)NC(=O)[C@H](C)[C@@H]1O [Example 23] has MCC at least equal to 10 µM.
1 (yes)

I'd appreciate it if you could say whether CCC(C)SC(=O)[C@]1([C@@H](O)C(C)C)NC(=O)[C@H](C)[C@@H]1O (stereo partly drawn) [Example 11] has MCC at least equal to 10 µM.
1 (yes)

I'd appreciate it if you could say whether C=CCOC(=O)[C@H](CSC(=O)[C@]1([C@@H](O)C(C)C)NC(=O)[C@H](C)[C@@H]1O)NC(C)=O [Example 6, lactacystin allyl ester] has MCC at least equal to 10 µM.
0 (no)

I'd appreciate it if you could say whether CC(C)[C@H](O)[C@@]1(C(=O)SCCCO)NC(=O)[C@H](C)[C@@H]1O [Example 15] has MCC at least equal to 10 µM.
1 (yes)

I'd appreciate it if you could say whether CNCCSC(=O)[C@]1([C@@H](O)C(C)C)NC(=O)[C@H](C)[C@@H]1O [Example 17] has MCC at least equal to 10 µM.
0 (no)

I'd appreciate it if you could say whether CCCCCSC(=O)[C@]1([C@@H](O)C(C)C)NC(=O)[C@H](C)[C@@H]1O [Example 12] has MCC at least equal to 10 µM.
1 (yes)

I'd appreciate it if you could say whether CC(C)SC(=O)[C@]1([C@@H](O)C(C)C)NC(=O)[C@H](C)[C@@H]1O [Example 9] has MCC at least equal to 10 µM.
1 (yes)

I'd appreciate it if you could say whether CCCSC(=O)[C@]1([C@@H](O)C(C)C)NC(=O)[C@H](C)[C@@H]1O [Example 8] has MCC at least equal to 10 µM.
0 (no)

I'd appreciate it if you could say whether CC(C)[C@H](O)[C@@]1(C(=O)SCCC(=O)O)NC(=O)[C@H](C)[C@@H]1O [Example 2, des-N-acetylaminolactacystin] has MCC at least equal to 10 µM.
0 (no)

I'd appreciate it if you could say whether CC(C)[C@H](O)[C@@]1(C(=O)Sc2ccccc2)NC(=O)[C@H](C)[C@@H]1O [Example 13] has MCC at least equal to 10 µM.
1 (yes)

I'd appreciate it if you could say whether COC(=O)[C@H](CSC(=O)[C@]1([C@@H](O)C(C)C)NC(=O)[C@H](C)[C@@H]1O)NC(C)=O [Example 5, lactacystin methyl ester] has MCC at least equal to 10 µM.
0 (no)

I'd appreciate it if you could say whether CC(C)[C@H](O)[C@@]1(C(=O)SCCO)NC(=O)[C@H](C)[C@@H]1O [Example 14] has MCC at least equal to 10 µM.
1 (yes)
